FYI, the data here is from patent US20130324465A1.

Biological target: T1, VEGF165 (UniProt P15692 27-191)
T1 chain: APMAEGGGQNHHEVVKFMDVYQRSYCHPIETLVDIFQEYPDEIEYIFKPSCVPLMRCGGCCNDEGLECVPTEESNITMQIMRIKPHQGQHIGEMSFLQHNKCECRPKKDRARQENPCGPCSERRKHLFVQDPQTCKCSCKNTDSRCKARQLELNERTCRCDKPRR
Test: Biacore; 500RU VEGF
The entries below come with measured log10 Kd values attached.
Hello, just confirming the data are log10 of Kd with units of nM.

Known results for binders:
{"columns": ["binder", "log10 Kd"],
 "data": [
  ["Four-arm D2 tetramer linked with 4-arm PEG of 10 kDa (receptor, free cysteine coupled to a 4-arm 10 kDa PEG) RPFVEMYSEIPEIIHMTEGRELVIPCRVTSPNITVTLKKFPLDTLIPDGKRIIWDSRKGFIISNATYKEIGLLTCEATVNGHLYKTNYLTHRQT", -0.85],
  ["disulfide-linked D2 dimer (D2 domain with HPC4 tag and C-terminal cysteine) (receptor, disulfide-linked dimer, presumably via the C-terminal cysteine, Two preparations are kept under one id; One formed spontaneously and was SEC-purified from PEGylation reactions or conditioned medium, without copper oxidation ('D2 HPC4 eluate Pk B', 'D2 Pk B'); also called Cu-oxidized dimer; D2 HPC4 eluate Pk B) RPFVEMYSEIPEIIHMTEGRELVIPCRVTSPNITVTLKKFPLDTLIPDGKRIIWDSRKGFIISNATYKEIGLLTCEATVNGHLYKTNYLTHRQT", -0.28],
  ["D2-Cys protein (D2 domain of FLT-1 with HPC4 tag and C-terminal cysteine), monomer (receptor, Expressed in HEK293-EBNA cells and purified on an HPC4 antibody column; glycosylated; also called D2 monomer; TCEP-reduced D2 monomer) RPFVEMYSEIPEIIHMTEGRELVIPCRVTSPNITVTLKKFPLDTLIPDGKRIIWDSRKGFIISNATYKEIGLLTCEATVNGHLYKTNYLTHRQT", 1.06],
  ["Four-arm D2 tetramer linked with 4-arm PEG of 20 kDa (receptor, free cysteine coupled to a 4-arm 20 kDa maleimide PEG) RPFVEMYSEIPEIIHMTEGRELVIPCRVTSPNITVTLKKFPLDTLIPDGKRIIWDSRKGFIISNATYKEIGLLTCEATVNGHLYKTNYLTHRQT", -1.00]
]}

// switching to the query binder
(Q) Look up log10 Kd for this binder: sFLT01 (D2-9Gly-Fc) (Fc fusion) RPFVEMYSEIPEIIHMTEGRELVIPCRVTSPNITVTLKKFPLDTLIPDGKRIIWDSRKGFIISNATYKEIGLLTCEATVNGHLYKTNYLTHRQTGGGGGGGGG
(A) -0.21
